Subject Of Test: PPARα (Homo sapiens, UniProt Q07869)
Sequence (Q07869 200-468 limits assumed): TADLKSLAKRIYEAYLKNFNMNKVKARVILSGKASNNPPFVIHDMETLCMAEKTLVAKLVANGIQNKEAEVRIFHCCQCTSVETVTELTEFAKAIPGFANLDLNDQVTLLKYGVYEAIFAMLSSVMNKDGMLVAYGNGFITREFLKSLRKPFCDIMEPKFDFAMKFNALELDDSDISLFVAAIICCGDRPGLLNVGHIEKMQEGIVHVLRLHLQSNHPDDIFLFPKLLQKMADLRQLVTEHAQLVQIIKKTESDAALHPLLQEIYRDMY
Quantity Name: Kd (nM)
Numeric answer only, unit nM assumed.

Note Kd for the compound shown: O=C(O)Cc1cccc(Sc2ccc(N(CCc3ccccc3)C(=O)NC3CCCCC3)cc2)c1 [Example 18b]
250
